Each entry below carries its reported inhibition.
- test.system: Amyloid-beta precursor protein (Homo sapiens) (UniProt P05067)
- Sequence (P05067 whole entry): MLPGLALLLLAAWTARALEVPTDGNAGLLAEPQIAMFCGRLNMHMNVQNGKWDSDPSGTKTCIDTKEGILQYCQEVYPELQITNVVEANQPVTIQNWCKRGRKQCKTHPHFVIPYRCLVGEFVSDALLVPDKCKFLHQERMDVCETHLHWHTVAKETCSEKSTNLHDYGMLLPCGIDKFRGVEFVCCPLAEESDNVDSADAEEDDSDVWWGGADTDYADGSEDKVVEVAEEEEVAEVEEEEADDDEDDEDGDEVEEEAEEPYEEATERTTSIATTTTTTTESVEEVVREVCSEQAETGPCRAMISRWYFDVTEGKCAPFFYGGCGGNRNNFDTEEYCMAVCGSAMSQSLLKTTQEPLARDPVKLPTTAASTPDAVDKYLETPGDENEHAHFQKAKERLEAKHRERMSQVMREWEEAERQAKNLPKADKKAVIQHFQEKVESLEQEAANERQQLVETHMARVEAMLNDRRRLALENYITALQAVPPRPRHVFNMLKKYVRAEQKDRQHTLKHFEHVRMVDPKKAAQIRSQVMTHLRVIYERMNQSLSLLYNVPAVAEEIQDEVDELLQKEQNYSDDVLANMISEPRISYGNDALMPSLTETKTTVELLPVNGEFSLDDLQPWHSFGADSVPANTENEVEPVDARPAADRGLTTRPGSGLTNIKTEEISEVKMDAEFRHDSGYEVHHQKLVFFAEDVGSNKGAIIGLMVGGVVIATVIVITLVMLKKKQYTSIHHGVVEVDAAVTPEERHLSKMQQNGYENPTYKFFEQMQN
- assay.procedure: Inhibition of self-mediated aggregation of amyloid beta (1-42) (unknown origin) at 25 uM after 24 hrs by thioflavin T fluorescence-based fluorimetric method
measurement.kind: inhibition (%)

[[record]]
molecule = "CCN(CCCNC(=O)c1cc(=O)c2c(O)cc(O)cc2o1)Cc1ccccc1OC"
unit_spec = "%"
value = 35.1

[[record]]
molecule = "CCN(CCCCCCNC(=O)c1cc(=O)c2c(O)cc(O)cc2o1)Cc1ccccc1OC"
unit_spec = "%"
value = 39.4

[[record]]
molecule = "CCN(CCCNC(=O)c1cc(=O)c2c(O)cc(OC)cc2o1)Cc1ccccc1OC"
unit_spec = "%"
value = 47.9

[[record]]
molecule = "CCN(CCCCCCNC(=O)c1cc(=O)c2c(O)cc(OC)cc2o1)Cc1ccccc1OC"
unit_spec = "%"
value = 58.2

[[record]]
molecule = "CCN(CCCCNC(=O)c1cc(=O)c2c(O)cc(OC)cc2o1)Cc1ccccc1OC"
unit_spec = "%"
value = 51

[[record]]
molecule = "CCN(CCCCNC(=O)c1cc(=O)c2c(O)cc(OC)cc2o1)Cc1ccc(N(C)C)cc1"
unit_spec = "%"
value = 37.1

[[record]]
molecule = "CCN(CCCCCCNC(=O)c1cc(=O)c2c(O)cccc2o1)Cc1ccccc1OC"
unit_spec = "%"
value = 63


* * *

- test.system: Amyloid-beta precursor protein (Homo sapiens)
- assay.procedure: Inhibition of Cu2+-mediated aggregation of amyloid beta (1-42) (unknown origin) at 25 uM after 24 hrs by thioflavin T fluorescence-based fluorimetric method
Catalogue of inhibition values
measurement.kind: inhibition

[[record]]
molecule = "CCN(CCCNC(=O)c1cc(=O)c2c(O)cccc2o1)Cc1ccccc1OC"
test_system = "Amyloid-beta precursor protein (Homo sapiens)"
value = "35.2%"

[[record]]
molecule = "CCN(CCCCNC(=O)c1cc(=O)c2c(O)cc(OC)cc2o1)Cc1ccccc1OC"
test_system = "Amyloid-beta precursor protein (Homo sapiens)"
value = "38.9%"

[[record]]
molecule = "COc1cc(O)c2c(=O)cc(C(=O)NCCCCN(C)Cc3ccccc3OC)oc2c1"
test_system = "Amyloid-beta precursor protein (Homo sapiens)"
value = "36.3%"

[[record]]
molecule = "CCN(CCCCCCNC(=O)c1cc(=O)c2c(O)cccc2o1)Cc1ccccc1OC"
test_system = "Amyloid-beta precursor protein (Homo sapiens)"
value = "55.6%"

[[record]]
molecule = "COc1cc(O)c2c(=O)cc(C(=O)NCCCN(C)Cc3ccccc3)oc2c1"
test_system = "Amyloid-beta precursor protein (Homo sapiens)"
value = "24.3%"


* * *

- test.system: Acetylcholinesterase (Electrophorus electricus, UniProt O42275)
- Sequence (O42275 whole entry): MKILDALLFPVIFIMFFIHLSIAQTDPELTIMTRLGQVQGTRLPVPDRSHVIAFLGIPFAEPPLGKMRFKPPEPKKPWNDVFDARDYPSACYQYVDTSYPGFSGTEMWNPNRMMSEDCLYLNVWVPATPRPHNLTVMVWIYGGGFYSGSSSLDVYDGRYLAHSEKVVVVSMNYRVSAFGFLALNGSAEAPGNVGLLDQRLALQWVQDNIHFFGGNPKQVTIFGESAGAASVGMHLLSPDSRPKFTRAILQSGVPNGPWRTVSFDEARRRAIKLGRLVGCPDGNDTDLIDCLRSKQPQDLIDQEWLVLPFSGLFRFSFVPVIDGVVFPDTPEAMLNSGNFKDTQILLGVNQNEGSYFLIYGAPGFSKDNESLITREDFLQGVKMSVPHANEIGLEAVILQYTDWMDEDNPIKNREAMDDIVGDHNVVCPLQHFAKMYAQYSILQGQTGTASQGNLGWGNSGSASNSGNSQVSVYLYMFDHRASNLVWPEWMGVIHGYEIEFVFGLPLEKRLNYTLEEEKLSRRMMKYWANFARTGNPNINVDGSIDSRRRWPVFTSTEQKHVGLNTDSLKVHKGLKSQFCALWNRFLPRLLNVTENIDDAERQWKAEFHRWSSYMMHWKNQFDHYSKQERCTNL
- assay.procedure: Inhibition of electric eel AChE using acetylthiocholine iodide as substrate after 15 mins by Ellman method
- recorded.conditions: read-out: IC50
measurement.kind: IC50 (nM)

[[record]]
molecule = "COc1cc(O)c2c(=O)cc(C(=O)NCCCCCCN(C)Cc3ccccc3)oc2c1"
unit_spec = "nM"
op = "="
value = 250

[[record]]
molecule = "CCN(CCCCNC(=O)c1cc(=O)c2c(O)cc(N(C)C)cc2o1)Cc1ccccc1OC"
unit_spec = "nM"
op = "="
value = 4020

[[record]]
molecule = "CCN(CCCCCCNC(=O)c1cc(=O)c2c(O)cc(O)cc2o1)Cc1ccccc1OC"
unit_spec = "nM"
op = "="
value = 1400

[[record]]
molecule = "CN(CCCNC(=O)c1cc(=O)c2c(O)cccc2o1)Cc1ccccc1"
unit_spec = "nM"
op = "="
value = 24400

[[record]]
molecule = "O=C(O)c1cc(=O)c2c(O)cc(O)cc2o1"
unit_spec = "nM"
op = ">"
value = 200000

[[record]]
molecule = "COc1cc(O)c2c(=O)cc(C(=O)NCCCCCCN(C)Cc3ccccc3OC)oc2c1"
unit_spec = "nM"
op = "="
value = 580

[[record]]
molecule = "COc1cc(O)c2c(=O)cc(C(=O)NCCCCN3CCOc4ccccc4C3)oc2c1"
unit_spec = "nM"
op = ">"
value = 200000

[[record]]
molecule = "CCN(CCCCCCNC(=O)c1cc(=O)c2c(O)cc(OC)cc2o1)Cc1ccccc1OC"
unit_spec = "nM"
op = "="
value = 560

[[record]]
molecule = "CCN(CCCCNC(=O)c1cc(=O)c2c(O)cc(OC)cc2o1)Cc1ccccc1OC"
unit_spec = "nM"
op = "="
value = 1160

[[record]]
molecule = "COc1cc(O)c2c(=O)cc(C(=O)O)oc2c1"
unit_spec = "nM"
op = ">"
value = 200000

